target: human kappa opioid receptor (Homo sapiens, UniProt P41145); construct: expressed in transfected cells; host or cells: CHO cells, stably transfected; assay: Radioligand binding, [3H]U69,593 (κ), CHO membranes; settings: Table 2; ratio of Ki values
Sequence (P41145 whole entry): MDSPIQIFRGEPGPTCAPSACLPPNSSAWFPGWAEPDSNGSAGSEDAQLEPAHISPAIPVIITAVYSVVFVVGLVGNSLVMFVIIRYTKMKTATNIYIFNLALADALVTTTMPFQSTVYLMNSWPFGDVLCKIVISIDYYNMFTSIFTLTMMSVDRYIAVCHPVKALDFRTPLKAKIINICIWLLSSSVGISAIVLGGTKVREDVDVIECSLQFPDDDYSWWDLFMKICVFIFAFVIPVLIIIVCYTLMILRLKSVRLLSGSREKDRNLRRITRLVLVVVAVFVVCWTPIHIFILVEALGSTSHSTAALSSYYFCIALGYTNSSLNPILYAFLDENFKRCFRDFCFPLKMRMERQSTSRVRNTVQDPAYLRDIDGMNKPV
assay metric: Selectivity δ:κ

[[record]]
compound = "COCCN1CC[C@]23CCCC[C@H]2[C@H]1C(=O)c1ccc(O)cc13"
target_entity = "human kappa opioid receptor (Homo sapiens, UniProt P41145)"
value_measured = 590

[[record]]
compound = "C#CCN1CC[C@]23CCCC[C@H]2[C@H]1C(=O)c1ccc(O)cc13 [Compound 73, 3-Hydroxy-10-keto-N-propargylmorphinan]"
target_entity = "human kappa opioid receptor (Homo sapiens, UniProt P41145)"
value_measured = 38

[[record]]
compound = "O=C1c2ccc(O)cc2[C@@]23CCCC[C@H]2[C@@H]1N(CCc1ccccc1)CC3"
target_entity = "human kappa opioid receptor (Homo sapiens, UniProt P41145)"
value_measured = 1.3

[[record]]
compound = "O=C1c2ccc(O)cc2[C@@]23CCCC[C@H]2[C@@H]1N(CC1CCC1)CC3"
target_entity = "human kappa opioid receptor (Homo sapiens, UniProt P41145)"
value_measured = 540

